Recorded melting point by entry

Some compounds with known melting point results, for comparison:
COMPOUND: COc1cc(C(C)C)ccc1C1(NC(C)=O)C(=O)c2cccc(NC(C)=O)c2C1=O (centres unmarked) [Example 67]
melting point: 241 to 243 °C
--
COMPOUND: CSc1ccc(C2(O)C(=O)c3ccccc3C2=O)cc1 [Example 58]
melting point: 153 to 155 °C

Ask | Requested read-out: melting point. Entry: CCN(CC)C(=O)Oc1cc(C(C)C)ccc1C1(O)C(=O)c2ccccc2C1=O [Example 34]
Reply | 103 to 106 °C

Ask | One more compound: COc1cc(C(C)C)ccc1C1(O)C(=O)c2ccc(N)c(N)c2C1=O (centres unmarked) [Example 47]
Reply | 272 to 274 °C
